Target: Broad substrate specificity ATP-binding cassette transporter ABCG2 (Homo sapiens, UniProt Q9UNQ0)
Sequence (Q9UNQ0 whole entry): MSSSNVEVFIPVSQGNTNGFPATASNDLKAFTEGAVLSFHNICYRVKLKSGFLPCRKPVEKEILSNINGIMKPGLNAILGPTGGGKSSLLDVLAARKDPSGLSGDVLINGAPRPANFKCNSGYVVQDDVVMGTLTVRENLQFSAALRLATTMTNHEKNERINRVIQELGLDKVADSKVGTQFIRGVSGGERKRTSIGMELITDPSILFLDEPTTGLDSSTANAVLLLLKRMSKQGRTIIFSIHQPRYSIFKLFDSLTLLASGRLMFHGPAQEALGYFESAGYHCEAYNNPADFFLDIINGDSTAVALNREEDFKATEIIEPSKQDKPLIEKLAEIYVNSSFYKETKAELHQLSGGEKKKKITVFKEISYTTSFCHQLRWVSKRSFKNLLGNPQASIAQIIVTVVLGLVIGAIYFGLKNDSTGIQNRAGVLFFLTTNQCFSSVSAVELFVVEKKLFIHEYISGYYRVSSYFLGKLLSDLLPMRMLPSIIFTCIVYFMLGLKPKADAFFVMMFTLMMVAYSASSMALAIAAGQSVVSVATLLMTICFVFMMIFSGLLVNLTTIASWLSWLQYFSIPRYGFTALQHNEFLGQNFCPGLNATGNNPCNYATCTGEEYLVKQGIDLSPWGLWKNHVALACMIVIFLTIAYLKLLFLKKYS
Assay: Inhibition of BCRP in human MCF7/Topo cells assessed as mitoxantrone accumulation preincubated for 10 mins followed by mitoxantrone addition measured after 30 mins by fluorescence assay
Can you tell me pIC50 for the items I'm about to list?
For clarity, pIC50 is expressed as the negative log10 of concentration in mol/L.

Data request: Please supply the value of reported pIC50 for the item COc1cc(C2CC(c3ccc4ccccc4c3)=NN2C(C)=O)cc(Cl)c1OC (stereo not drawn)
Data returned: 5.13

Data request: Please supply the value of reported pIC50 for the item "COc1cc(/C=C/C(=O)c2ccc3ccccc3c2)cc(I)c1OC"
Data returned: 5.11

Data request: Please supply the value of reported pIC50 for the item "COc1ccc2c3c([nH]c2c1)[C@H](C=C(C)C)N1C(=O)[C@@H]2CCCN2C(=O)[C@@H]1C3"
Data returned: 6.02

Data request: Please supply the value of reported pIC50 for the item COc1cc(C2CC(c3ccc4ccccc4c3)=NN2C(C)=O)cc(Br)c1OC (stereo not drawn)
Data returned: 5.05

Data request: Please supply the value of reported pIC50 for the item "COc1cc(/C=C/C(=O)c2ccc3ccccc3c2)cc(Cl)c1OC"
Data returned: 5.06

Data request: Please supply the value of reported pIC50 for the item "COc1cc(/C=C/C(=O)c2ccc3ccccc3c2)cc(Br)c1OC"
Data returned: 5.31

Data request: Please supply the value of reported pIC50 for the item "COc1cc(/C=C/C(=O)c2ccc3ccccc3c2)cc(OC)c1OC"
Data returned: 5.62

Data request: Please supply the value of reported pIC50 for the item COc1cc(C2CC(c3ccc4ccccc4c3)=NN2C(C)=O)cc(I)c1OC (stereo not drawn)
Data returned: 5.15

Origin of measurements: ChEMBL document CHEMBL3856286
